Experimental Target: c-Src SH2;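 also: peptide library displayed on the E. coli surface as eCPX fusions, selected cells deep-sequenced, score is each peptide's frequency after selection divided by its frequency in the input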
Measurement Notes: SH2 binding enrichment of the phosphorylated peptide, bacterial display (enrichment ratio); higher = better substrate or ligand; peptides without Tyr show the background
Metric Name: SH2 binding enrichment

Recorded results for 5 sequences are shown here.
IKETHYMVDKC: 0.525
PADSGYPAYLG [ATP6V1A_Y374]: 0.614
WGTAEYDSVVA [MAP1A_Y1883]: 1
QRVLLYVQRET [GRHL3_Y518_R520Q]: 1.03
FSPCDYQPCLA [TNS1_Y798_Y796C_YF]: 0.837

Exercise: Answer with SH2 binding enrichment of NTGDFCDLFGG [PTPN11_Y63_Y63C_YF] measured for c-Src SH2.
Key: 0.632

Exercise: Answer with SH2 binding enrichment of PSDPSYEDMRE [BMPR1A_Y467] measured for c-Src SH2.
Key: 1.12

Exercise: Answer with SH2 binding enrichment of FHLLPYTIRAM [PARS2_Y93_V95I_YF] measured for c-Src SH2.
Key: 1.55

# credit: the supplement of paper PMC10065799
